# Tested on: c-Src;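 further: 11-residue human phosphosite peptides and single-mutation variants displayed on the E. coli surface, counted by deep sequencing, each peptide's frequency after selection divided by its frequency in the unselected input library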;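 further: frequency after pTyr selection over input frequency; kinase dosed for 20-30% of maximal phosphorylation in three min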
# Method Summary: phosphorylation enrichment, bacterial display (enrichment ratio); higher = better substrate or ligand; peptides without Tyr show the background
phosphorylation enrichment values for the sequences below.
Measurement Label: phosphorylation enrichment

[
  {
    "Sequence String": "NQDRTYYESVR [SPEN_Y632]",
    "Numeric Readout": 2
  },
  {
    "Sequence String": "NHFKIYNLCAE [PTEN_Y68_YF]",
    "Numeric Readout": 3.12
  },
  {
    "Sequence String": "HSPLRYTSILT [OR51B6_Y130_R125H]",
    "Numeric Readout": 0.574
  },
  {
    "Sequence String": "TLQSMYGCDLG [HLA-B_Y123_V127L]",
    "Numeric Readout": 0.597
  },
  {
    "Sequence String": "HRDSSYFWEIE [RAF1_Y340_Q335H_YF]",
    "Numeric Readout": 0.888
  },
  {
    "Sequence String": "MKGEFYRFLAE [YWHAG_Y131_D129E_YF]",
    "Numeric Readout": 0.382
  },
  {
    "Sequence String": "GVTLLYFGRDN [ADGRD1_Y85_Y89D_YF]",
    "Numeric Readout": 0.398
  },
  {
    "Sequence String": "LGSNTYPFLLT [SAG_Y120]",
    "Numeric Readout": 0.543
  },
  {
    "Sequence String": "ALECLYHREKR [TEKT5_Y195]",
    "Numeric Readout": 0.571
  },
  {
    "Sequence String": "RRYVYYYSYLL [PTEN_Y177]",
    "Numeric Readout": 0.79
  },
  {
    "Sequence String": "KDPPDYKFQPR [SOX9_Y172_H169P_YF]",
    "Numeric Readout": 0.43
  },
  {
    "Sequence String": "NLAAQYTTVGR [SGSH_Y240_D235N]",
    "Numeric Readout": 0.494
  },
  {
    "Sequence String": "LINPKYSVEEE [PCDH19_Y27_L25P]",
    "Numeric Readout": 0.608
  },
  {
    "Sequence String": "LLANAYIFDVQ [L1CAM_Y418_V421D_YF]",
    "Numeric Readout": 1.03
  },
  {
    "Sequence String": "HNGVSYYINLC [IGF2R_Y2024]",
    "Numeric Readout": 0.419
  },
  {
    "Sequence String": "FADIAYNFRHA [PAH_Y166_G171A_YF]",
    "Numeric Readout": 0.473
  },
  {
    "Sequence String": "CFVFFYSFLLK [PTEN_Y178_R173C_YF]",
    "Numeric Readout": 0.519
  },
  {
    "Sequence String": "ELPEKYSQNIC [PKP2_Y626_Y631C]",
    "Numeric Readout": 0.579
  },
  {
    "Sequence String": "ISPPVYLTNEW [NRK_Y885]",
    "Numeric Readout": 0.766
  },
  {
    "Sequence String": "IALNSYHSRNC [IFNGR1_Y397]",
    "Numeric Readout": 0.4
  },
  {
    "Sequence String": "YPPDGYSRHYE [CTNND1_Y213]",
    "Numeric Readout": 0.354
  },
  {
    "Sequence String": "ARAFIYAIIPA [ACKtide_2014]",
    "Numeric Readout": 3.54
  },
  {
    "Sequence String": "CEHRGSLYLAI [TEK_Y897_Y897S]",
    "Numeric Readout": 0.891
  },
  {
    "Sequence String": "SVTCMYSPALN [TP53_Y126_T125M]",
    "Numeric Readout": 0.804
  },
  {
    "Sequence String": "LARNMYDKEYY [MET_Y1230_D1228N]",
    "Numeric Readout": 0.611
  },
  {
    "Sequence String": "TTPYNYSYIFK [RAB14_Y8_A4T]",
    "Numeric Readout": 0.712
  },
  {
    "Sequence String": "NLMPAYHKCIQ [CYP21A2_Y190_Y191H]",
    "Numeric Readout": 0.501
  },
  {
    "Sequence String": "QDTSRYTVSNL [BIRC3_Y245]",
    "Numeric Readout": 0.617
  },
  {
    "Sequence String": "PVDVAYRHGFF [PLEC_Y2967_R2969H_YF]",
    "Numeric Readout": 0.325
  }
]
